# System: P. falciparum 3D7
# assay name: DAPI stain fluorescent high content imaging assay, P. falciparum 3D7 (confirmatory screen, Avery)
# condition description: Plasmodium falciparum, 3D7, read-out: percent_inh @ 5 uM
measurement type: inhibition of growth at 5 µM (%)
One number for each entry, in %.

# compound, study target, inhibition of growth at 5 µM [%]
measured = [
    ("CCn1c2c(c(=N)c3c1CCC3)CCCC2", "P. falciparum 3D7", 77),
    ("COc1ccccc1N1C(=N)SC(=Cc2ccc(OCc3ccccc3F)cc2)C1=O", "P. falciparum 3D7", 95),
    ("CCc1ccc(Nc2cc(C)c3ccc(O)cc3n2)cc1", "P. falciparum 3D7", 98),
    ("O=C(Nc1ccc(Br)cc1)Nc1cccc(Cl)c1", "P. falciparum 3D7", 94),
    ("O=C(Nc1cccc(-c2nc3ccccc3[nH]2)c1)c1cccc(NC(=O)c2ccco2)c1", "P. falciparum 3D7", 95),
    ("O=C(Nc1cccc(C(F)(F)F)c1)c1cc(Cl)ccc1O", "P. falciparum 3D7", 93),
    ("CC(C)(C)c1ccc(C2CC3=Nc4ccccc4N(C(=O)c4ccccc4Cl)C(c4ccc(F)cc4)C3=C(O)C2)cc1 (stereo not drawn)", "P. falciparum 3D7", 96),
    ("CCCc1c(C)nc2ccc(Br)cc2c1O", "P. falciparum 3D7", 64),
    ("COc1ccc(CCNC(=O)c2cc(S(=O)(=O)N3CC(C)CC(C)C3)ccc2Sc2ccc(F)cc2)cc1OC (stereo not drawn)", "P. falciparum 3D7", 97),
    ("COc1ccc(CN2CCCC(C(=O)c3ccc(C(F)(F)F)cc3)C2)c(O)c1 (stereo not drawn)", "P. falciparum 3D7", 97),
]

Hi! Can you tell me inhibition of growth at 5 µM for each of these compounds?
1. Cc1ccc(-c2cc3nc4c(c(O)n3n2)CCCC4)cc1
2. Cc1ccc(-c2nc3ccccc3o2)cc1NCc1cc(Cc2ccccc2)ccc1O
3. CN1CCN(c2ccc(Nc3c4ccccc4nc4ccccc34)cc2)CC1
4. COc1ccc(-c2cn3c(C(=O)Nc4ccccc4Cl)c(-c4ccccc4)c4c3n2CCCC4)cc1

73
64
97
80

Hi! Can you tell me inhibition of growth at 5 µM for each of these compounds?
1. CCCCNc1nc(NC(C)(C)C)nc(NC(C)(C)C)n1
2. Brc1ccc(Nc2nc3ccccc3nc2Nc2ccc(Br)cc2)cc1
3. COc1ccc(C(=O)NC(c2ccccc2Cl)c2cc(Cl)c3cccnc3c2O)cc1 (stereo not drawn)
4. Cc1ccc(C)c(-c2csc(Nc3ccc(C)c(C)c3)n2)c1
5. CN(C)c1ccc(C(O)(c2ccc(N(C)C)cc2)c2ccc(N(C)C)cc2)cc1

1. 98
2. 98
3. 96
4. 94
5. 96

Hi! Can you tell me inhibition of growth at 5 µM for each of these compounds?
1. CCc1ccc(CNCC(O)c2ccccc2)cc1 (stereo not drawn)
2. CCOc1ccc(C2N(C)c3ccccc3N2C)cc1
3. c1ccc2c(NCCc3c[nH]c4ccccc34)c3ccccc3nc2c1
4. COc1cc(CNCCc2ccc(Cl)cc2)cc(OC)c1O
5. Cc1ccc2cc3c(N)c4c(C)ccc(C)c4nc3nc2c1
6. Cn1c(=O)c2cc(C(=O)NCCCN3CCCCCC3)sc2c2ccccc21
7. CCCN(CCC)CC(O)COc1ccccc1C(=O)Nc1ccccc1 (stereo not drawn)
8. COc1ccc(C(=O)NC(c2ccc(Cl)cc2Cl)c2cc(Cl)c3cccnc3c2O)cc1 (stereo not drawn)

1. 97
2. 72
3. 97
4. 97
5. 98
6. 97
7. 98
8. 96
